Reported OD450 at 100 nM is given for each of the following binders.
# Measurement target: T1, monkey GPC3-His protein (monkey)
# T1 construct: Bought recombinant protein; also called monkey GPC3 protein
# Assay method text: ELISA, monkey GPC3-His coated;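 also: Plate-coated antigen at 1 µg/mL, antibody binding 2 h at 37 °C, detected with HRP-labeled secondary antibody and TMB, absorbance at 450 nm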
API: value field is a number in OD450; no unit string.

{"columns": ["Binder", "OD450 at 100 nM (OD450)"],
 "data": [
  ["F1.136.7 (antibody, human IgG1, kappa, V domains shown, Human-murine chimeric antibody) VH: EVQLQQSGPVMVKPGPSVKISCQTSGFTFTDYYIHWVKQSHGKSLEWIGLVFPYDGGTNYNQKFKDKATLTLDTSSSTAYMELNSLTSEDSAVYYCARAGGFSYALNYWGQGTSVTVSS VL: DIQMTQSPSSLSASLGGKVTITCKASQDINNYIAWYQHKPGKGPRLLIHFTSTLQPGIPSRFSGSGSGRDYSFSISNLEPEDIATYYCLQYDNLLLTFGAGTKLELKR", 1.96]
]}

// next item, OD450 at 100 nM requested
q: Kindly indicate its recorded OD450 at 100 nM. Item: F2.23.8 (antibody, human IgG1, kappa, V domains shown, Human-murine chimeric antibody) VH: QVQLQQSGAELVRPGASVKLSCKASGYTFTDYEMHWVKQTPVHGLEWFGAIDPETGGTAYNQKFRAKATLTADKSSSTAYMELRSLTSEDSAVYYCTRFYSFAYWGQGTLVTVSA VL: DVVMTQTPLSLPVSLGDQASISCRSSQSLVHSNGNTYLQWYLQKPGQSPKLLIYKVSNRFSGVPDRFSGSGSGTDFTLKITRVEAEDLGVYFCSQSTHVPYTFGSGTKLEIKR
a: 2.25

These entries and their values trace back to patent US20260116991A1.
